Hey, just so you know, these numbers are from patent US9522890B2.

Biological target: human recombinant prostanoid EP1 receptor (Homo sapiens, UniProt P34995)
Construct: expressed in transfected cells
Sequence (P34995 whole entry): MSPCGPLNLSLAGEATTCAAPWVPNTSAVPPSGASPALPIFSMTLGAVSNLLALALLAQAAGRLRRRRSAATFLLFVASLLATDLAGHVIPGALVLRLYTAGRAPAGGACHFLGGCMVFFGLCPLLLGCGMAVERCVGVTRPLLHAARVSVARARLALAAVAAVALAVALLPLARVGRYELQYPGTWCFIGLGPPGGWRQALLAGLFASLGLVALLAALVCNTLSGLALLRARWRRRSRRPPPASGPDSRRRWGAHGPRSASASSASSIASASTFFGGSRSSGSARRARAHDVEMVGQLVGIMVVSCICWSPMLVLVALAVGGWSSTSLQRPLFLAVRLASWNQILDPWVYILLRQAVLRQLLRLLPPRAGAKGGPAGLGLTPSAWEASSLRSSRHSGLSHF
Assay: FLIPR Ca2+ signaling PG antagonist assay, EP1 receptor stable cell line
Assay type: cell-based
Details: HEK-293 EBNA cells, standard agonist PGE2
Method: The above compounds were tested for PG antagonist activity as follows using human recombinant prostanoid receptor (DP1, EP1-4, FP, IP and TP) stable cell lines: […] Ca^2+ signaling studies were performed using a FLIPR TETRA system (Molecular Devices, Sunnyvale, Calif., USA) in the 384-format. […] Cells were excited with LED (light emitting diode) excitation at 470-495 nm and emission was measured through an emission filter at 515-575 nm. Assay plates were read for 3.5 minutes using the FLIPR^TETRA. […]
metric.name: Kb (nM)

Field: example entries. Status: answers known.
COc1ccc(COc2ccc(Cl)cc2Cn2nc(C(=O)NS(=O)(=O)c3ccccc3)cc2C)cc1
10
CCC(CC)COc1ccc(Br)cc1Cn1nc(C(=O)O)cc1C
10
Cc1cc(C(=O)NS(=O)(=O)c2ccccc2)nn1Cc1cc(Cl)ccc1OCc1ccc(Cl)cc1
10
CCC(C)(CC)COc1ccc(Br)cc1Cn1nc(C(=O)O)cc1C
19
Cc1cc(C(=O)O)nn1Cc1cc(Br)ccc1OCC1CCCC1
10

P: Cc1cc(C(=O)O)nn1Cc1cc(Br)ccc1OCC1CCC1
Q: Cc1cc(C(=O)O)nn1Cc1cc(C(F)(F)F)ccc1OCC1CCCC1
R: Cc1cc(C(=O)O)nn1Cc1cc(Br)ccc1OCC1(C(F)(F)F)CCC1
S: Cc1cc(C(=O)O)nn1Cc1cc(Cl)ccc1OCC1CCCC1
Query: Hey, quick one: sort these by Kb, low to high? Please list the labels in the order you were asked to rank them.
Response: Q, P, R, S
